ASSAY_TEXT: CHI Log D procedure
Format: physicochemical
CONDITION_DESCRIPTION: pH 7.4, CHI Log D
PARAMETER: chromatographic logD
Just the number, please, no unit attached.

Observe how each entry below is paired with its result.
## Task What does the record list as chromatographic logD for CC(=O)N[C@@H](Cc1ccccc1)C(=O)N[C@@H](CC(=O)O)C(=O)N[C@@H](C)C(=O)N[C@]1(C)CCCCCCC=CCOC(=O)N2CC[C@@](C(=O)N[C@@H](Cc3ccncc3)C(=O)N[C@@H](Cc3c[nH]c4ccccc34)C(=O)N[C@@H](CCC(N)=O)C(N)=O)(C2)NC(=O)[C@H](C(C)C)NC(=O)[C@H](Cc2ccccc2)NC(=O)[C@H](C)NC(=O)[C@H](C)NC(=O)[C@H](CC(=O)O)NC(=O)[C@H](CC(=O)O)NC1=O (single isomer, unassigned) ?
## Result 0.985

## Task Returns the measured chromatographic logD for the input compound. Input: CC(=O)N1CCC[C@]12CC=CCCCC1(CCCC=CCCCCCC[C@@](C)(C(=O)N[C@@H](CC(N)=O)C(=O)N[C@@H](Cc3c[nH]c4ccccc34)C(=O)N[C@@H](CCC(N)=O)C(N)=O)NC(=O)[C@H](C(C)C)NC(=O)[C@H](Cc3ccccc3)NC(=O)[C@H](C)NC(=O)[C@H](C)NC(=O)[C@H](CC(=O)O)NC(=O)[C@H](CC(=O)O)NC1=O)NC(=O)[C@H](C)NC(=O)[C@H](CC(=O)O)NC2=O (some centres unmarked)
## Result 1.52

## Task Which chromatographic logD value belongs to CC(=O)N1CCC[C@]12CC=CCCCC1(CCCC=CCCCCCC[C@@](C)(C(=O)N[C@@H](Cc3ccccc3)C(=O)N[C@@H](Cc3c[nH]c4ccccc34)C(=O)N[C@@H](CCC(N)=O)C(N)=O)NC(=O)[C@H](C(C)C)NC(=O)[C@H](Cc3ccccc3)NC(=O)[C@H](C)NC(=O)[C@H](C)NC(=O)[C@@](C)(CC(C)C)NC(=O)[C@H](CC(=O)O)NC1=O)NC(=O)[C@H](C)NC(=O)[C@H](CC(=O)O)NC2=O (single isomer, unassigned) ?
## Result 2.87

Others:
## Task Which chromatographic logD reading was recorded for the compound CC(=O)N1CCC[C@]12CC=CCCCC1(CCCC=CCCCOC(=O)N3CC[C@@](C(=O)N[C@@H](Cc4ccsc4)C(=O)N[C@@H](Cc4csc5ccccc45)C(=O)N[C@@H](CCC(N)=O)C(N)=O)(C3)NC(=O)[C@H](CC(N)=O)NC(=O)[C@H](Cc3ccccc3)NC(=O)[C@H](CCCCNC(=O)CCC34CC5CC(CC(C5)C3)C4)NC(=O)[C@H](C)NC(=O)[C@H](CC(=O)O)NC(=O)[C@H](CC(=O)O)NC1=O)NC(=O)[C@H](CC(C)(C)C)NC(=O)[C@H](CC(=O)O)NC2=O (some centres unmarked) ?
## Result 2.49

## Task chromatographic logD lookup needed for CC(=O)N1CCC[C@]12CC=CCCCC1(CCCC=CCCCCCC[C@@](C)(C(=O)N[C@@H](Cc3ccccc3)C(=O)N[C@@H](Cc3c[nH]c4ccccc34)C(=O)N[C@@H](CCC(N)=O)C(N)=O)NC(=O)[C@H](C(C)C)NC(=O)[C@H](Cc3ccccc3)NC(=O)[C@H](C)NC(=O)[C@H](C)NC(=O)[C@H](CCC(=O)O)NC(=O)[C@H](CC(=O)O)NC1=O)NC(=O)[C@H](C)NC(=O)[C@H](CC(=O)O)NC2=O (some centres unmarked) , thanks.
## Result 1.98
